- Test system: CHIKV DRDE-07
- measurementNotes: In vitro screening against CHIKV (CPE inhibition and MTT cell viability)
- Format: cell-based, chikungunya virus
- settings: Table S1; 72 hpi, MTT assay, CHIKV-infected Vero cells
quantityMeasured: % Cell viability (%)
Give the quantity in %, number only.

Field % Cell viability (entry O=C1NC(c2ccc(Cl)cc2)c2c(ccc3ccccc23)O1 (centres unmarked) ) reads -3.8

Summary for this compound, "CCOc1cc(/C=N/NC(=O)c2cccnc2)ccc1O" : % Cell viability is 15.39

Note to self: % Cell viability recorded for CCOc1ccc(C2NC(=O)NC(C)=C2C(=O)OCCN(C)C)cc1 (centres unmarked) was 25.42

According to the records, this compound "CCOc1ccc(/C=N/NC(=O)c2cccnc2)cc1OC" displays % Cell viability of 0.1

Record C#CCOC(=O)C1=C(C)NC(=O)NC1c1ccc(CC)cc1 (centres unmarked) . Reported % Cell viability: 11.61

Query "O=C(N/N=C/c1ccc(Cl)cc1)c1ccncc1" yields % Cell viability of 5.23

Query CC1=C(C(=O)OCCN(C)C)C(c2ccc(O)cc2)NC(=O)N1 (centres unmarked) yields % Cell viability of 12.01

The measured % Cell viability associated with "Cc1ccccc1/C=N/NC(=O)c1cccnc1" reads 14.76

For reference, reported % Cell viability for "O=C(c1cccnc1)n1nc(-c2ccc(O)cc2)cc1-c1ccc(Cl)cc1Cl" stands at 8.73

Given item "O=C(N/N=C/c1ccccc1Br)c1cccnc1" , the value recorded as its % Cell viability is 28.01

% Cell viability for COc1ccc(C2NC(=O)NC(C)=C2C(=O)OCc2ccccc2)cc1 (centres unmarked) is 8.11

Taken from paper PMC10674894.
